// cross-study collection: pIC50 for PDE1A (Homo sapiens, UniProt P54750)
pIC50: −log10 of the molar value.

INSERT INTO assay_data (smiles_record, readout_kind, value_reported) VALUES
  ('Cc1nc(-c2cccc(CN(C)c3nc4c(C(C)(C)C)nn(C)c4c(=O)[nH]3)c2)cs1', 'pIC50', '> 7.00');

Ask | Entry "Cc1nn(C(C)(C)C)c2nc(C3CN(C(=O)Nc4ccc(F)cc4)C3)[nH]c(=O)c12" has what pIC50?
Reply | 7.00 to 9.00

Ask | Given the entry "CCCc1nn(C)c2c(=O)[nH]c(N(Cc3cccc(-n4cccn4)c3)CC(C)(C)C)nc12" , report its measured pIC50.
Reply | > 7.00

Ask | // lookup pIC50 for "CC[C@@]12C=C(/C=C/C(=O)O)n3c4c(c5ccccc53)CCN(CCC1)[C@H]42"
Reply | < 4.00

Ask | Could you share which pIC50 value was measured for "CCCc1nn(C)c2c(=O)[nH]c(NCc3cccc(-n4cncn4)c3)nc12" ?
Reply | 6.30 to 7.00

Ask | What measured pIC50 goes with "CC[C@@]12C=C(c3csc(N)n3)n3c4c(c5ccccc53)CCN(CCC1)[C@H]42" ?
Reply | 4.00 to 4.70

Ask | Dear colleague, I am looking for the recorded pIC50 of the following compound: "CC[C@@]12C=C(c3nc(C(F)F)no3)n3c4c(c5ccccc53)CCN(CCC1)[C@H]42"
Reply | 4.00 to 4.70

Ask | Request the reported pIC50 associated with "CCCc1nn(C)c2c(=O)[nH]c(Nc3ccc4[nH]ncc4c3)nc12"
Reply | < 6.30

* * *

Study the reported IC50 values for UniProt P54750 given below; they originate from different publications.
readout-kind: IC50 (µM)

INSERT INTO assay_data (smiles_record, value_reported) VALUES
  ('CCCc1ncc2c(=O)n(CC3CCCCC3)c(C)cn12', 0.12);

A. Cc1ccccc1-c1ccc(Cc2cn3c(C4CCOCC4)ncc3c(=O)n2C)cc1
B. CCN(c1ncnc2c(OC)c(OC)ccc12)[C@H]1CCOC1
C. CC(C)n1ncc2nc(-c3cnn4ccccc34)cc(N[C@@H]3CCOC3)c21
D. CCOc1ncccc1-c1cc(NCc2nnn(C)n2)c2c(C(C)C)nc(C)n2n1
Ask | Thanks in advance: please rank these 4 entries by IC50, highest to lowest. Quick reminder: the answer is the labels in the order asked.
Reply | C, B, A, D
(C: 1.62 µM, B: 0.48 µM, A: 0.117 µM, D: 0.0054 µM)

* * *

Here is a set of molecules with reported IC50 for PDE1A (Homo sapiens, UniProt P54750), compiled from the literature.

Known IC50 results, listed for orientation:
INSERT INTO results (molecule, value_reported) VALUES
  ('CCOc1ncccc1-c1cc(N[C@@H]2COC[C@H]2OC)c2c(cnn2C(C)C)n1 (relative stereo)', '575 nM'),
  ('CC(C)(C)n1ncc2c(=O)[nH]c(C3CN(/C(=N\C#N)Nc4ccc(F)cc4)C3)nc21', '1 to 100 nM'),
  ('CC(C)CN(Cc1ccc(F)cc1)c1nc2c(C(C)(C)C)nn(C)c2c(=O)[nH]1', '< 100 nM'),
  ('CCOc1nnccc1-c1cc(NCc2cnn(C)c2)c2c(C(C)C)nc(C)n2n1', '24 nM'),
  ('Cc1nn(C2CCCCC2)c2nc(C3CCCN(C(=O)c4cccn4C)C3)[nH]c(=O)c12 (centres unmarked)', '501 to 1000 nM');

Ask | For "COc1ccccc1N1CC(c2nc3c(cnn3C3CCCCC3)c(=O)[nH]2)C1" , what is its reported IC50?
Reply | 101 to 500 nM

Ask | Field request: IC50 | item: "CCCC(O)(CCC)C1=C[C@]2(CC)CCCN3CCc4c(n1c1ccccc41)[C@@H]32"
Reply | > 100000 nM

Ask | Field request: IC50 | item: "O=c1[nH]c(C2CN(c3ccc(CN4CCOCC4)cc3)C2)nc2c1cnn2C1CCCCC1"
Reply | 1 to 100 nM

* * *

Before we begin, note that these IC50 values for PDE1A (Homo sapiens) originate from several publications.
readout-kind: IC50 (nM)

Worked cases, IC50 given:
INSERT INTO assay_data (molecule, units_label, value_reported) VALUES
  ('CCOc1ncccc1-c1cc(NCc2ncn(C)n2)c2c(C(C)C)nn(C)c2n1', 'nM', 11),
  ('Cn1c(Cc2ccc(-c3cccc(C(F)F)n3)cc2)cn2c(C3CCOCC3)ncc2c1=O', 'nM', 58),
  ('CCCCn1c(=O)c2nnc(C3(C)CC3)n2c2ncc(CO)cc21', 'nM', 23),
  ('COc1cccc(Cn2c(C)cn3c(C4CCOCC4)ncc3c2=O)c1', 'nM', 416),
  ('CCOc1cnccc1-c1cc(NCc2ncn(C)n2)c2c(C(C)C)nn(C)c2n1', 'nM', 58);

I. Cn1c(Cc2ccc(-c3ccccn3)cc2)nc2c(cnn2C2CCOCC2)c1=O
II. CC(C)n1ncc2nc(-c3ccccc3)cc(N[C@@H]3CCOC3)c21
Ask | Would you mind telling me which has the lower recorded IC50 between I and II ? Please reply using the label of the selected record.
Reply | I
(I: 390 nM, II: 2000 nM)

* * *

pIC50: −log10 of the molar value.
Record: compiled pIC50 on UniProtKB P54750 from multiple reports.
readout-kind: pIC50

INSERT INTO results (compound, value_reported) VALUES
  ('CC(C)n1ncc2nc(-c3cccc4c3OCO4)cc(N[C@@H]3CCOC3)c21', 5.89);

P. O=c1c2cnc(C3CCOCC3)n2cc(Br)n1Cc1cccc(F)c1
Q. COc1ccc2c(NC3(C)CCOC3C)ncnc2c1OC (mixture of isomers)
R. Cc1cnc(-c2cc(NCc3ncn(C)n3)c3c(C(C)C)nn(C)c3n2)s1
Ask | Hello, I need these entries ordered by pIC50, highest reading first. Thanks! Record the ranking as a list of labels in the requested order.
Reply | P, Q, R

* * *

IC50 for PDE1A (Homo sapiens, UniProt P54750) - collated from the literature.
readout-kind: IC50 (nM)

Consider the worked cases shown below.
INSERT INTO measurements (compound, value_reported) VALUES
  ('CCOc1ncccc1-c1cc(NCc2cc[nH]n2)c2c(C(C)CC)nc(C)n2n1 (single isomer, unassigned; (+))', 57),
  ('CCc1cn2c(C3CCOCC3)ncc2c(=O)n1Cc1ccccc1', 105),
  ('CCOc1ncccc1-c1ccn2c(C(C)C)nc(C)c2n1', 96),
  ('CCCCn1c(=O)c2nnc(C3(C4CC4)CC3)n2c2nc(C)c(C)cc21', 0.343),
  ('CCOc1ncccc1-c1cc(NCc2ccccn2)c2c(C(C)C)nn(C)c2n1', 68);

1. COc1ccc(Cn2c(C)cn3c(C4CCc5ccc(Cl)cc54)ncc3c2=O)cc1 (stereo not drawn)
2. CCOc1ncccc1-c1cc(NCc2nc(C)no2)c2c(C(C)C)nn(C)c2n1
Ask | Identify the item whose IC50 is the smaller number: 1 or 2 Please reply using the label of the selected record.
Reply | 1
(1: 5 nM, 2: 82 nM)

P. CCCCn1c(=O)c2nnc(C3(C4CC4)CC3)n2c2ncc(C(C)C)cc21
Q. CCCn1c(Cc2ccc(C)cc2)nn2c(C3CCOCC3)ncc2c1=O
R. CCOc1ncccc1-c1cc(NCc2cnn(C)c2)c2c(C(C)CC)nc(C)n2n1 (single isomer, unassigned; (+))
S. COc1ccc(Cn2c(C)cn3c(N4CCOC(C)(C)C4)ncc3c2=O)cc1
Ask | Hey, quick one: sort these by IC50, low to high? Provide the labels, sequenced as the question asks.
Reply | P, R, Q, S
(P: 0.26 nM, R: 5.8 nM, Q: 83 nM, S: 287 nM)

1. CCOc1ncccc1-c1cc(NCc2cccnc2F)c2c(C(C)C)nc(C)n2n1
2. CCCCn1c(=O)c2nnc(C3(C(F)(F)F)CC3)n2c2ncc(C)cc21
3. CCCn1c(=O)c2nnc(C3(C4CC4)CC3)n2c2ncc(C)cc21
4. CO[C@H]1CC[C@@H](Cn2c(C)cn3c(C4CCOCC4)ncc3c2=O)CC1
Ask | Ordering criterion: IC50; begin with the maximum. Response field: labels, in requested order.
Reply | 4, 1, 2, 3

* * *

pIC50: −log10 of the molar value.
pIC50 for PDE1A (Homo sapiens, UniProt P54750), merged from several publications.

Examples from the recorded data:
INSERT INTO assay_data (compound, value_reported) VALUES
  ('CCOc1ncccc1-c1cc(NCc2cncc(OC)c2)c2c(C(C)C)nc(C)n2n1', 8.21),
  ('CCCc1nn(C)c2c(=O)[nH]c(NCc3cccc(-c4ccn(C)n4)c3)nc12', '> 7.00'),
  ('CCCOc1ncccc1-c1cc(NCc2cn(C)cn2)c2c(C(C)C)nn(C)c2n1', 8.57),
  ('COc1ccc(S(=O)(=O)N2CCCC(c3nc4c(cnn4-c4ccccc4)c(=O)[nH]3)C2)cc1 (centres unmarked)', '6.30 to 7.00'),
  ('O=C(NCCc1c[nH]cn1)N1CC(c2nc3c(cnn3C3CCCCC3)c(=O)[nH]2)C1', '6.30 to 7.00'),
  ('CCCc1nn(C)c2c(=O)[nH]c(N(C)Cc3cccc(OCCN4CCOCC4)c3)nc12', '< 6.30'),
  ('COc1ccccc1C(=O)N1CCCC(c2nc3c(c(C)nn3C3CCC3)c(=O)[nH]2)C1 (centres unmarked)', '6.00 to 6.30');

Please find the next compound below.
Ask | Write down the reported pIC50 of "CCOc1ncccc1-c1cc(NCc2cccnc2C(F)(F)F)c2c(C(C)C)nc(C)n2n1" , test system: PDE1A (Homo sapiens, UniProt P54750).
Reply | 7.13
